Taken from patent US8383581B2.

Target: T1, rat PTH-1R (rat PTHR endogenously expressed on UMR-106 rat osteosarcoma cells) (rat, UniProt P25961 27-591)
T1 sequence (looked up): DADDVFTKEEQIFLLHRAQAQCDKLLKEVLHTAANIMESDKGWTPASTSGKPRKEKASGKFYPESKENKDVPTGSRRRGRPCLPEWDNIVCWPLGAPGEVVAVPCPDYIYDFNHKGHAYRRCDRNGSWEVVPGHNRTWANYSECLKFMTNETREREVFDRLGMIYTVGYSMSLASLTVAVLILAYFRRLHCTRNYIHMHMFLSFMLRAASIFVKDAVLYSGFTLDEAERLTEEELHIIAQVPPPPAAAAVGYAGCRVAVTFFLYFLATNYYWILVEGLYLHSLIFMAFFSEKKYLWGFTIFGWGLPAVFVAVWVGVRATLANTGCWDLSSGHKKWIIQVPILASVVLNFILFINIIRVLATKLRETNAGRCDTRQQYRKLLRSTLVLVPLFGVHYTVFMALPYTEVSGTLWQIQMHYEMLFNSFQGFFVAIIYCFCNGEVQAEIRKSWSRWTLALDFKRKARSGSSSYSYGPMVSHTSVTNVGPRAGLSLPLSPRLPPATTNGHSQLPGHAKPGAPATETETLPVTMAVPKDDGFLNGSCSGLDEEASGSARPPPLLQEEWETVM
Experiment: cell-based or functional assay
*1 amine or outer side, *2 acyl side, *3 side chain or, on linkers, in order; H or OH if unused. Where no end group is shown, it is not given here. [ ]: non-standard residue; d: D form. αMe‑APPA = 2-amino-2-methyl-5-phenylpentanoic acid, C[C@@](CCCc1ccccc1)(N[*:1])C(=O)[*:2]; Bip(2'-Et-4'-OMe) = CCc1cc(OC)ccc1-c1ccc(C[C@H](N)C(=O)O)cc1; Arg(NO2) = N=C(NCCC[C@H](N)C(=O)O)N[N+](=O)[O-]; αMePhe(2,6-F2) = C[C@](N)(Cc1c(F)cccc1F)C(=O)O; αMePhe(2-F) = C[C@](N)(Cc1ccccc1F)C(=O)O; αMeNle = CCCC[C@](C)(N[*:1])C(=O)[*:2]; hhPhe = N[C@@H](CCCc1ccccc1)C(=O)O; hArg = N=C(N)NCCCC[C@H](N)C(=O)O; hCit = NC(=O)NCCCC[C@H](N)C(=O)O; αMeF = C[C@](N)(Cc1ccccc1)C(=O)O; Cit = NC(=O)NCCC[C@H](N)C(=O)O; Ac6c = NC1(C(=O)O)CCCCC1; Nle = CCCC[C@H](N)C(=O)O; Ac5c = NC1(C(=O)O)CCCC1; Ac3c = NC1(C(=O)O)CC1; Aib = CC(C)(N)C(=O)O
cAMP released with respect to control, 1 nM peptide, UMR-106 cells values by entry
PARAMETER MEASURED: cAMP released with respect to control, 1 nM peptide, UMR-106 cells

- BINDER: "[Aib]V[Ac5c]EIQ[αMePhe(2,6-F2)][Nle]HQ[hArg][Aib][Arg(NO2)][αMePhe(2-F)] [Seq. ID. 256]"
  VALUE REPORTED: "28 percent of control"
- BINDER: "V[Ac5c]V[Aib]EIQL[αMeNle]HQ[hArg]A[hArg][Bip(2'-Et-4'-OMe)][αMe‑APPA] [Seq. ID. 925]"
  VALUE REPORTED: "16 percent of control"
- BINDER: "[Ac5c]V[Ac5c]EIQ[αMePhe(2,6-F2)][Nle]HQ[hArg][Aib][Aib][αMePhe(2,6-F2)] [Seq. ID. 198]"
  VALUE REPORTED: "32 percent of control"
- BINDER: "V[Aib]V[Aib]EIQL[Nle]HQ[hArg]A[hArg][Bip(2'-Et-4'-OMe)][αMe‑APPA] [Seq. ID. 905]"
  VALUE REPORTED: "39 percent of control"
- BINDER: "[Aib]V[Ac6c]EIQL[Nle]HQ[hArg][Aib]K[αMeF] [Seq. ID. 23]"
  VALUE REPORTED: "12 percent of control"
- BINDER: "[Ac5c]V[Aib]EIQL[Nle]HQ[hCit]A[Cit][Bip(2'-Et-4'-OMe)][hhPhe] [Seq. ID. 781]"
  VALUE REPORTED: "16 percent of control"
- BINDER: "[Aib]V[Aib]EIQ[αMePhe(2-F)][Nle]HQ[Cit][Aib][Cit][αMePhe(2-F)] [Seq. ID. 346]"
  VALUE REPORTED: "21 percent of control"
- BINDER: "[Aib]V[Aib]EIQ[αMePhe(2,6-F2)][Nle]HQ[hCit]A[Aib][αMePhe(2-F)] [Seq. ID. 429]"
  VALUE REPORTED: "39 percent of control"
- BINDER: "[Ac3c]V[Aib]EIQ[αMePhe(2-F)][Nle]HQ[hArg]A[Arg(NO2)][αMePhe(2,6-F2)][hhPhe] [Seq. ID. 712]"
  VALUE REPORTED: "15 percent of control"
- BINDER: "[Ac5c]V[Aib]EIQLMHQ[hArg][Aib]K[αMeF] [Seq. ID. 20]"
  VALUE REPORTED: "79 percent of control"
- BINDER: "[Aib]V[Aib]EIQL[Nle]HQ[hArg]AK[Bip(2'-Et-4'-OMe)] [Seq. ID. 647]"
  VALUE REPORTED: "56 percent of control"
